MEASUREMENT_TARGET: T1, his-tagged human TIGIT (Acro Biosystems #TIT-H52H3) (human, UniProt Q495A1 22-141)
T1 construct: Bought protein; also called His-tagged-TIGIT (human); not shown: his tag
T1 sequence (looked up): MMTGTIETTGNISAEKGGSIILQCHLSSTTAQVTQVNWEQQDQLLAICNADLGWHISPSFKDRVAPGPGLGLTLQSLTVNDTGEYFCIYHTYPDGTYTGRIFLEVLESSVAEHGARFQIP
ASSAY_NAME: SPR (Carterra LSA), scFv-Fc captured, His-TIGIT analyte
In this section we review reported Kd values for a set of binders.
Number only, in nM; omit the unit.

INSERT INTO measurements (binder, val) VALUES
  ('43586p2.G10 (scFv, V domains shown) VH: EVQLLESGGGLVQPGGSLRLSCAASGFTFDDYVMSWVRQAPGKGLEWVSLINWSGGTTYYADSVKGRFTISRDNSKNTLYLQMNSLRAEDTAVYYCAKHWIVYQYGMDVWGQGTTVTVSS VL: QSVLTQPSSASGTPGQRVTISCSGTISNIETKYVSWYKYVSWYQQLPGTAPKLLIYNNVQRPSGVPDRFSGSQSGTSASLAISGLQSEDEAHYYCASWEGGLNSWVFGGGTKLTVL', 0.267),
  ('43645p1.D7 (scFv, V domains shown) VH: EVQLLESGGGLVQPGGSLRLSCAASGFTFSRNSMSWVRQAPGKGLEWVSTINSGSSYTYYADSVKGRFTISRDNSKNTLYLQMNSLRAEDTAVYYCAKDNCNGYHCYGMDVWGLGTTVTVSS VL: QSVLTQPPSASGTPGQRVTISCSGSTSNVGDHYVHWYQQLPGTAPKLLIYKDDQRPSGVPDRFSGSKSGTSASLAISGLQSEDEADYYCSTWDNTLNGWVFGGGTKLTVL', 6.76),
  ('43645p1.F11 (scFv, V domains shown) VH: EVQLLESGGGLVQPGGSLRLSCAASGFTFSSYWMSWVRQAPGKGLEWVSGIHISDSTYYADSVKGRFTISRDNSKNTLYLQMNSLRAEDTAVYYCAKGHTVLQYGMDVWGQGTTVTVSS VL: QSGLTQPPSASGTPGQRVTISCSGDISNTRNNYVSWYQQLPGTAPKLLIYRNSQRPSGVPDRFSGSKSATSASLAISGLQSEDEADYYCGTWDNTLNAWVFGGGTKLTVL', 0.322),
  ('43586p2.A03 (scFv, V domains shown) VH: EVQLLESGGGLVQPGGSLRLSCAASGFTFTSYAMSWVRQAPGKGLEWVAGISYIGRNEYYADSVKGRLTISRDNSKNTLYLQMNNLRAEDTAIYYCAKHLTGGTTDYYYYGMDVWGQGTTVTVSS VL: QSVLTQPPSASGTPGQRVTISCSGSTSNIGTSRYVHWYQQLPGTAPKLLIYFDSQRPSGVPDRFSASKSGTSASLAISGLQSEDEADYYCATWDDSLSAWVFGGGTKLTVL', 0.386),
  ('43586p1.2.B2 (scFv, V domains shown) VH: EMQLLESGGGLVQPGGSLRLSCAASGFTFDDYVMSWVRQAPGKGLEWVSLINWNGDKTYYADSVKGRFTISRDNSKNTLYLQMNSLRAEDTAIYYCAKHWIVFQYGMDVWGQGTTVTVSS VL: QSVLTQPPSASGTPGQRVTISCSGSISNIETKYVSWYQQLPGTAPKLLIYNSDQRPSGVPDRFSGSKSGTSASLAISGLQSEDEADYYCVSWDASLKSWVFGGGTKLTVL', 0.245);

Ask: Supply measured Kd of 43586p2.G01 (scFv, V domains shown) VH: EVQLLESGGGLVQPGGSLRLSCAASGFTVSSNWMSWVRQAPGKGLEWVSTTSSSSWNNYTYYADSVKGRFTISRDNSKNTLYLQMNSLRAEDTAVYYCAKGSYGMDVWGQGTTVTVSS VL: QSVLTQPPSASGTPGQRVTISCSGSNSNIGAKYLYWYQQLPGTAPKLLIYLNDRRPSGVPDRFSGSKSGTSASLAISGLQSEDEADYYCAFWDDHLKGWVFGGGTKLTVL in your reply.
Result: 2.69

Ask: Given the binder 43586p2.D06 (scFv, V domains shown) VH: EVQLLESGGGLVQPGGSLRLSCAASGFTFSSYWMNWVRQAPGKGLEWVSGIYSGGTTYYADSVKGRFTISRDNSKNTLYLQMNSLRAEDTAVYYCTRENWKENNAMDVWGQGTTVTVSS VL: QSVLTQPPSASGTPGQRVTISCSGVTSNIASYHVYWYQQLPGTAPKLLIYLNSQRPSGVPDRFSASKSGTSASLAISGLQSEDEADYYCATWDGSLNGWVFGGGTKLTVL , write its reported Kd.
Result: 0.344

Ask: Answer with reported Kd of 43645p1.B2 (scFv, V domains shown) VH: EVQLLESGGGLVQPGGSLRLSCATSGFTFSSYWMSWVRQAPGKGLEWVSGIHISDSTYYADSVKGRFTISRDNSKNTLYLQMNSLRAEDTAVYYCAKGHTVLQYGMDVWGQGTTVTVSS VL: QSGLTQPPSASGTPGQRVTISCSGDISNTRNNYVSWYQQLPGTAPKLLIYGNHQRPSGVPDRFSGSKSATSASLAISGLQSEDEADYHCGTWDNTLNAWVFGGGTKLTVL
Result: 0.0464

Ask: Output Kd of 43586p2.F02 (scFv, V domains shown) VH: EVQLLESGGGLVQPGGSLRLSCAASGFTFDDYVMSWVRQAPGKGLEWVSLINWNGDKTYYADSVKGRFTISRDNSKNTLYLQMNSLRAEDTAVYYCARHWIVLQYGLDVWGQGTTVTVSS VL: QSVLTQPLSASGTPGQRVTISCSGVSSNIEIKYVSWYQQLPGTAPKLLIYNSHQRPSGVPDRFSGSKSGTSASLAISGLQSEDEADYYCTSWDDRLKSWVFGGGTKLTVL
Result: 1.81

Ask: Identify the reported Kd for the following entry. 43645p1.G5 (scFv, V domains shown) VH: EVQLLESGGGLVQPGGSLRLSCAASGFTFSSYYMSWVRQAPGKGLEWVSAISIFSGDSTYYADSVKGRFTISRDNSKNTLYLQMNSLRAEDTAVYYCAKSHTVLQYGMDVWGQGTTVTVSS VL: QSVLTQPPSASGTPGQRVTISCSGVTSNIRNYYVSWYQQLPGTAPKLLIYGNDQRPSGVPDRFSGSKSGTSASLAISGLQSEDEADYYCGTWDNTLNAWVFGGGTKLTVL
Result: 0.0507
